Biological target: aquaporin-3 (AQP3) (Homo sapiens)
Construct: human AQP3 C-terminally GFP-tagged, expressed in aqy-null S. cerevisiae; endogenous AQP3 in human red blood cells
Sequence (Q92482 1-292): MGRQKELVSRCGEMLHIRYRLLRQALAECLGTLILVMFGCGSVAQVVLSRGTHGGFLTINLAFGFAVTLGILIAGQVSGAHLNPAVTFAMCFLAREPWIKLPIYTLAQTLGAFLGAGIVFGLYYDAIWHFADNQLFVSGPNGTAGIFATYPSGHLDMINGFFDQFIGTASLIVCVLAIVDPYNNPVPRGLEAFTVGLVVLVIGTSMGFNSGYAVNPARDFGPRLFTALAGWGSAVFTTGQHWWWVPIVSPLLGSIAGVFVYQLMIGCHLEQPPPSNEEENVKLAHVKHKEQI
Assay: stopped-flow glycerol permeability in hRBCs (IC50), confirmed in hAQP3-expressing yeast ([…] inhibition at […])
measured-attribute: IC50 (µM)
Use µM as the unit, but write only the number.

Prompt: // IC50 lookup, key: CC(=O)c1c(O)c(C)c(O)c(Cc2c(O)c3c(c(C(=O)/C=C/c4ccccc4)c2O)OC(C)(C)C=C3)c1O [RoT, Rottlerin]
Response: 6.7

Each recorded value in this set is attributed to paper PMC10057066.
